Biological target: T1, GFP-9S library array, motif 4 ND N98I;D124T (synthetic construct, N98I;D124T)
T1 chain: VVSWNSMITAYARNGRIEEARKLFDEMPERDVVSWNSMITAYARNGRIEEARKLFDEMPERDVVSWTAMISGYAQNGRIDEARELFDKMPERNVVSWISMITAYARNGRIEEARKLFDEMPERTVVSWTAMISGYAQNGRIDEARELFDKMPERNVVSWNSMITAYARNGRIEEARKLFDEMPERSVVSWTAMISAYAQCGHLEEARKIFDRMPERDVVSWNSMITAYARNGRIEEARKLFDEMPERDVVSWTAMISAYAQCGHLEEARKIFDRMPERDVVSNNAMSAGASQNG
Assay: high-throughput RNA pulldown from lysate on Ni-NTA beads; HRP: 50 mM Tris pH 8, 150 mM NaCl, 1 mM beta-mercaptoethanol, 50 ug/ml BSA, 3 ug/ml yeast RNA, 0.5% heparin; ITC and FP: Tris pH 8, 200 mM KCl, 5% glycerol; MST: 50 mM Tris pH 8, 200 mM NaCl, 1 mM DTT, BSA, heparin, 0.05% Tween 20
Conditions: tags: N-terminal His-eGFP; label: 5' Cy5
Listing of recorded pKd by entry.
Bear in mind: pKd is minus log10 of a mol/L concentration; give just that figure.

AUUACACGUGA (ssRNA) [Cy5-rpoA]: 6.85

Proceeding to the next binder to report its pKd.
Return value of pKd for input AUUAGACGUGA (ssRNA) [Cy5-rpoA-G] , no commentary.
6.84

These entries and their values trace back to paper PMC8809517.
